Attribution: PubChem BioAssay AID745

- experiment-summary: inhibitors of measles virus growth in cells, primary screen, measles RdRp inhibitor project, cell-based, single point, HTS (AID 745)
- experimental-parameters: infected Vero cells, GFP fluorescence, 64 h; active compounds read low
Out of some 33,000 compounds screened, about 40 (0.1%) were called active. Many of the other results were omitted from the sample, so actives are more common in it than they were.
z-score values, listed per item
reported-property: z-score

molecule	data-value
COc1ccc(OC)c(C2Nc3cccc4cccc(c34)N2)c1	-0.45
CC(C)c1ccc(NC(=O)c2ccc(NC3CCCC(C)C3C)c([N+](=O)[O-])c2)cc1 (stereo not given)	-0.26
O=C(Nc1c(C(=O)N2CCC(Cc3ccccc3)CC2)cnn1-c1ccccc1)c1ccc(Br)cc1	0.43
COc1cc(C2NC(=O)N(C)C(C)=C2C(=O)OCCc2ccccc2)cc(Br)c1O (stereo not given)	-0.63
Nc1c(C(=O)Nc2ccc(Br)cc2)sc2nc3c(c(-c4ccco4)c12)CCCCC3	-0.89

---

- experiment-summary: inhibitors of measles virus growth in cells, primary screen, measles RdRp inhibitor project, cell-based, single point, HTS (AID 745)
- experimental-parameters: infected Vero cells, GFP fluorescence, 64 h; active compounds read low
The campaign covered roughly 33,000 compounds. About 40 (0.1%) were called active. The list comes from a sample in which actives are over-represented; it also holds close analogues and randomly drawn compounds.
Label Yes when z-score is strictly below -0.4; otherwise label No.

compound	answer-label
Cc1ccc(Cl)cc1N1CCN(C(=O)CCCn2c(=S)[nH]c3cc4c(cc3c2=O)OCO4)CC1	No
N=C1N=C(N)C(Cc2ccccc2)S1 (stereo unspecified)	Yes
O=C(N1CCCc2ccccc21)C12CC3CC(CC(C3)C1)C2	Yes
Cc1cccc(C(=O)Nc2ccc(-c3nc4cc(C(C)(C)C)ccc4o3)cc2)c1	Yes
Cc1ccc2nc(-c3ccccc3)c(Nc3ccccc3C)n2c1	Yes
O=c1oc2ccc3ccccc3c2cc1-c1nc(-c2ccccc2)cs1	No
Cc1ccc(-c2nnn(CC(=O)Nc3ccc(OC(F)(F)F)cc3)n2)cc1	No
O=C1NCCCCC1Nc1ccc(N2C(=O)CCCC2=O)cc1[N+](=O)[O-] (stereo unspecified)	Yes
N#Cc1c(NC(=O)CCCC(=O)O)sc2c1CCCC2	No
Cc1cccc(NC(=O)c2c(NC(=O)c3ccncc3)sc3c2CCC(C(C)(C)C)C3)c1 (stereo unspecified)	Yes
O=C(O)COc1ccc(-c2cc(C(=O)O)c3cc(Br)ccc3n2)cc1	No

---

z-score values, listed per item
- experiment-summary: inhibitors of measles virus growth in cells, primary screen, measles RdRp inhibitor project, cell-based, single point, HTS (AID 745)
- experimental-parameters: infected Vero cells, GFP fluorescence, 64 h; active compounds read low
The campaign covered roughly 33,000 compounds. About 40 (0.1%) were called active. The full list was thinned out, with actives kept by preference.

compound	z-score
O=C1CCCN1CCCn1c(=S)[nH]c2ccccc2c1=O	-0.96
CCC(C(=O)NCCC(C)C)N1C(=O)CSc2ccc(C(C)(C)C)cc21 (stereo not given)	0.55
COc1ccc(NC(=O)CN(c2cc(C(F)(F)F)ccc2Cl)S(=O)(=O)c2ccccc2)cc1	-0.33
CCOc1ccc(C(=O)Nc2cccc(-c3nc4cc(C)ccc4o3)c2)cc1Br	-0.49
Cn1c(=O)c(Cl)c(O)c2ccccc21	0.2
Cc1cc(Cl)ccc1OC1C(=O)N(c2cccc([N+](=O)[O-])c2)C1c1ccccc1Cl (stereo not given)	-0.08
COc1ccc(OC)c2[nH]c(=O)c(CCNC(=O)c3ccccc3I)cc12	-0.19
Cc1cc(C)cc(NC(=O)CCCn2c(=S)[nH]c3ccccc3c2=O)c1	-1.99
Cc1ccc(Sc2c(C)nn(C(C)(C)C)c2OC(=O)C2CCCC2)cc1	-0.01
O=C1C2C3C=CC(C3)C2C(=O)N1c1ccc(Nc2ccc3c(c2)CCC3)c([N+](=O)[O-])c1 (stereo not given)	-1.35
